Target: UniProtKB Q13470
Sequence (Q13470 1-666): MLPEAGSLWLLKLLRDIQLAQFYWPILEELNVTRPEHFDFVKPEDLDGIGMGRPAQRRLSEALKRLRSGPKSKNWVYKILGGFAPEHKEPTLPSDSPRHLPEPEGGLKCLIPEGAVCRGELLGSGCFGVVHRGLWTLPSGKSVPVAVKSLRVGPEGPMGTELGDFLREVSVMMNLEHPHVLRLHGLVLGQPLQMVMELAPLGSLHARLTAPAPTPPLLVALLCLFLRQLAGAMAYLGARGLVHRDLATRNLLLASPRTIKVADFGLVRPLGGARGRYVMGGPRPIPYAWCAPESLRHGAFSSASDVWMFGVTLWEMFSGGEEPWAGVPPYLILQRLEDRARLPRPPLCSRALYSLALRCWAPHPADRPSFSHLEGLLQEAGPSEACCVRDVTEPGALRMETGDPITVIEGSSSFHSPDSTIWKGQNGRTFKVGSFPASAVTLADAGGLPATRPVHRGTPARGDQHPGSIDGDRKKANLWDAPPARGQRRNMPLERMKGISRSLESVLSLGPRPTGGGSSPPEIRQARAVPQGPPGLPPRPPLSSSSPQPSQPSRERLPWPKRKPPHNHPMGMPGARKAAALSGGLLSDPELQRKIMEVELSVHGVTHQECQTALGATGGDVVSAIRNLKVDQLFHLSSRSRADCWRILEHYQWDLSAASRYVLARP
Assay: Kinase panel profiling at 1 µmol/L (MSA or IMAP), percentage inhibition
Format: biochemical
Details: kinase TNK1; 1 µmol/L single concentration; read-out: %-inhibition at 1 µmol/L, TNK1
property measured: inhibition at 1 µM (%)
Report the figure in % without appending any unit label.

# query: inhibition at 1 µM | item CCc1nc(C(N)=O)c(Nc2ccc(N3CCC(N4CCN(C)CC4)CC3)c(OC)c2)nc1NC1CCOCC1 | system: UniProtKB Q13470
97

Okay, and Cn1cnc2c(F)c(Nc3ccc(Br)cc3F)c(C(=O)NOCCO)cc21 ?
-8

Okay, and Cn1cnc2c(F)c(Nc3ccc(Br)cc3Cl)c(C(=O)NOCCO)cc21 ?
-8

Okay, and CCn1c(=O)c(-c2cc(NC(=O)Nc3ccccc3)c(F)cc2Br)cc2cnc(NC)cc21 ?
17

Okay, and C[C@H]1Oc2cc(cnc2N)-c2c(nn(C)c2C#N)CN(C)C(=O)c2ccc(F)cc21 ?
97

Okay, and CN1CCN(c2ccc(C(=O)Nc3n[nH]c4ccc(Cc5cc(F)cc(F)c5)cc34)c(NC3CCOCC3)c2)CC1 ?
99

Okay, and Cc1nc(NC(=O)N2CCC[C@H]2C(N)=O)sc1-c1ccnc(C(C)(C)C(F)(F)F)c1 ?
-4.23

Okay, and O=C(Nc1cnn2ccc(N3CCC[C@@H]3c3cc(F)ccc3F)nc12)N1CC[C@H](O)C1 ?
-0.876

====

Molecular target: panel of 255 wild-type kinases (Homo sapiens)
Assay: Kinase panel profiling at 1 µmol/L (MSA or IMAP), percentage inhibition
Format: biochemical
Conditions: CaMK1α kinase assay; 1 µmol/L single concentration; read-out: %-inhibition CaMK1α
Can you tell me inhibition at 1 µM for the items I'm about to list?
Report the figure in % without appending any unit label.

Look at this compound and give its reported inhibition at 1 µM. C=CC(=O)N1CCC([C@@H]2CCNc3c(C(N)=O)c(-c4ccc(Oc5ccccc5)cc4)nn32)CC1
-0.157

Okay, and FC(F)(F)c1ccc(CNc2ccc(Cc3c[nH]c4ncc(Cl)cc34)cn2)cn1 ?
-13

Okay, and Cc1nc(NC(=O)N2CCC[C@H]2C(N)=O)sc1-c1ccnc(C(C)(C)C(F)(F)F)c1 ?
-10

Okay, and COc1ccc(CN2C3CC2CN(c2ccc(-c4cc(OCC(C)(C)O)cn5ncc(C#N)c45)cn2)C3)cn1 ?
-5.55

Okay, and COc1cc2ncnc(Nc3ccc(F)c(Cl)c3)c2cc1NC(=O)/C=C/CN1CCCCC1 ?
-7

Okay, and CCn1c(=O)c(-c2cc(NC(=O)Nc3ccccc3)c(F)cc2Br)cc2cnc(NC)cc21 ?
-8

Okay, and Cn1cc(-c2cc3c(N4CCN(c5ncc([C@@](C)(N)c6ccc(F)cc6)cn5)CC4)ncnn3c2)cn1 ?
-9

Okay, and Cn1cnc2c(F)c(Nc3ccc(Br)cc3F)c(C(=O)NOCCO)cc21 ?
-5

Okay, and O=C(Nc1cnn2ccc(N3CCC[C@@H]3c3cc(F)ccc3F)nc12)N1CC[C@H](O)C1 ?
-1.63

Okay, and C[C@H](Nc1ncnc2nc[nH]c12)c1cc2cccc(Cl)c2c(=O)n1-c1ccccc1 ?
-5.33

Okay, and CCc1nc(C(N)=O)c(Nc2ccc(N3CCC(N4CCN(C)CC4)CC3)c(OC)c2)nc1NC1CCOCC1 ?
41

Okay, and Cn1cnc2c(F)c(Nc3ccc(Br)cc3Cl)c(C(=O)NOCCO)cc21 ?
-4.36

Okay, and CCN1C(=O)N(c2c(F)c(OC)cc(OC)c2F)Cc2cnc3[nH]c(CN4CCOCC4)cc3c21 ?
12

Okay, and COC(=O)N[C@@H](C)CNc1nccc(-c2cn(C(C)C)nc2-c2cc(Cl)cc(NS(C)(=O)=O)c2F)n1 ?
2.72

Okay, and CO[C@]1(C(=O)N[C@@H](C)c2ccc(-n3cc(F)cn3)nc2)CC[C@H](c2nc(C)cc(Nc3cc(C)[nH]n3)n2)CC1 ?
-4.72

Okay, and Cc1cc(Nc2ncnc3ccc(NC4=NC(C)(C)CO4)cc23)ccc1Oc1ccn2ncnc2c1 ?
-5.47

Okay, and CN1CCN(c2ccc(C(=O)Nc3n[nH]c4ccc(Cc5cc(F)cc(F)c5)cc34)c(NC3CCOCC3)c2)CC1 ?
-5.68

Okay, and CCN1CCN(c2ccc(Nc3cc(N(C)C(=O)Nc4c(Cl)c(OC)cc(OC)c4Cl)ncn3)cc2)CC1 ?
-22

Okay, and C[C@H]1Oc2cc(cnc2N)-c2c(nn(C)c2C#N)CN(C)C(=O)c2ccc(F)cc21 ?
1.49
